# Tested on: Saccharomyces cerevisiae;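 note: PSI is a weighted mean of sequencing reads over stability bins, variants kept only with over 10 reads, mCherry proximal and sfGFP distal, peptide attached via GGGS linker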
# Assay method text: protein stability index of tFT-peptide fusion (C-terminal peptide) (PSI (0-1 scale)); higher = more stable (slower turnover)
# Condition: genetic background: wild type; temperature: 30 C
The following sequences are shown together with reported protein stability index values.
# print the numeric value only

# example entries with known answers
Sequence string	protein stability index
EETGWGVVWVVR	0.703
PPSFDPSPPSSL	0.696
NTCGYGRAIKST	0.687

Asked: What protein stability index appears in the records for this sequence with Saccharomyces cerevisiae? "PSGICVLSPRYG"
Given back: 0.7

Asked: What protein stability index appears in the records for this sequence with Saccharomyces cerevisiae? "VDGLSGVRPRGL"
Given back: 0.69

Asked: What protein stability index appears in the records for this sequence with Saccharomyces cerevisiae? "PLPSPLLPRSVL"
Given back: 0.705

Asked: What protein stability index appears in the records for this sequence with Saccharomyces cerevisiae? "KYINSASLIVYY"
Given back: 0.693

Asked: What protein stability index appears in the records for this sequence with Saccharomyces cerevisiae? "RVCPPPLRRLLS"
Given back: 0.693

Asked: What protein stability index appears in the records for this sequence with Saccharomyces cerevisiae? "PSLPHSRPRTPT"
Given back: 0.707

Asked: What protein stability index appears in the records for this sequence with Saccharomyces cerevisiae? "SPLLFLLPPAAP"
Given back: 0.692
